tested target: human ACC2 (Homo sapiens)
Construct: made in house; host or cells: insect cells (baculoviral expression system)
procedure text: ACC2 assay, spectrophotometric 384 well assay (NADH-linked, coupled lactate dehydrogenase/pyruvate kinase)
Assay type: biochemical
conditions used: ACC2 assay, hACC2 construct lacking 128 N-terminal amino acids, 25° C., 340 nm; read-out: IC50
pIC50: −log10 of the molar value.
property measured: pIC50

Some solved entries appear below for comparison.
query smiles | pIC50
CC(=O)N[C@@H](C)c1ccc(C2CCN(c3ccc(O[C@@H]4CCOC4)cc3F)CC2)cc1 | 5.89
CC(=O)N[C@@H](C)c1ccc(C2CCN(c3cnc(-c4ccccn4)s3)CC2)cc1 | 6.38
CCOc1ccc(N2CCC(c3ccc([C@H](C)NC(=O)c4ccns4)cc3)CC2)cc1 | 6.55
CC(C)Oc1ccc(N2CCC(c3ccc([C@H](C)NC(=O)C4CC4)cc3)CC2)cc1 | 6.59

[a] CCC(=O)N[C@@H](C)c1ccc(C2CCN(c3ccc(OCC4CC4)cc3F)CC2)cc1
[b] CC(=O)N[C@@H](C)c1ccc(C2CCN(c3ncc(-c4ccc5c(ccn5C)c4)cn3)CC2)cc1
Exercise: compare a and b ; which one has the greater pIC50? State your choice using its label.
b

[A] CCOc1ccc(N2CCC(c3ccc([C@H](C)NC(=O)CC)cc3)CC2)cc1
[B] CC(=O)N[C@@H](C)c1ccc(C2CCN(c3ncc(OCC4CC4)cn3)CC2)cc1
Hey, which is lower on measured pIC50, A or B ? State your choice using its label.
B
(B: 6.28, A: 6.72)

###

tested target: human ACC2 (Homo sapiens, UniProt O00763)
Construct: made in house; host or cells: insect cells (baculoviral expression system)
Sequence (O00763 129-2458 limits assumed): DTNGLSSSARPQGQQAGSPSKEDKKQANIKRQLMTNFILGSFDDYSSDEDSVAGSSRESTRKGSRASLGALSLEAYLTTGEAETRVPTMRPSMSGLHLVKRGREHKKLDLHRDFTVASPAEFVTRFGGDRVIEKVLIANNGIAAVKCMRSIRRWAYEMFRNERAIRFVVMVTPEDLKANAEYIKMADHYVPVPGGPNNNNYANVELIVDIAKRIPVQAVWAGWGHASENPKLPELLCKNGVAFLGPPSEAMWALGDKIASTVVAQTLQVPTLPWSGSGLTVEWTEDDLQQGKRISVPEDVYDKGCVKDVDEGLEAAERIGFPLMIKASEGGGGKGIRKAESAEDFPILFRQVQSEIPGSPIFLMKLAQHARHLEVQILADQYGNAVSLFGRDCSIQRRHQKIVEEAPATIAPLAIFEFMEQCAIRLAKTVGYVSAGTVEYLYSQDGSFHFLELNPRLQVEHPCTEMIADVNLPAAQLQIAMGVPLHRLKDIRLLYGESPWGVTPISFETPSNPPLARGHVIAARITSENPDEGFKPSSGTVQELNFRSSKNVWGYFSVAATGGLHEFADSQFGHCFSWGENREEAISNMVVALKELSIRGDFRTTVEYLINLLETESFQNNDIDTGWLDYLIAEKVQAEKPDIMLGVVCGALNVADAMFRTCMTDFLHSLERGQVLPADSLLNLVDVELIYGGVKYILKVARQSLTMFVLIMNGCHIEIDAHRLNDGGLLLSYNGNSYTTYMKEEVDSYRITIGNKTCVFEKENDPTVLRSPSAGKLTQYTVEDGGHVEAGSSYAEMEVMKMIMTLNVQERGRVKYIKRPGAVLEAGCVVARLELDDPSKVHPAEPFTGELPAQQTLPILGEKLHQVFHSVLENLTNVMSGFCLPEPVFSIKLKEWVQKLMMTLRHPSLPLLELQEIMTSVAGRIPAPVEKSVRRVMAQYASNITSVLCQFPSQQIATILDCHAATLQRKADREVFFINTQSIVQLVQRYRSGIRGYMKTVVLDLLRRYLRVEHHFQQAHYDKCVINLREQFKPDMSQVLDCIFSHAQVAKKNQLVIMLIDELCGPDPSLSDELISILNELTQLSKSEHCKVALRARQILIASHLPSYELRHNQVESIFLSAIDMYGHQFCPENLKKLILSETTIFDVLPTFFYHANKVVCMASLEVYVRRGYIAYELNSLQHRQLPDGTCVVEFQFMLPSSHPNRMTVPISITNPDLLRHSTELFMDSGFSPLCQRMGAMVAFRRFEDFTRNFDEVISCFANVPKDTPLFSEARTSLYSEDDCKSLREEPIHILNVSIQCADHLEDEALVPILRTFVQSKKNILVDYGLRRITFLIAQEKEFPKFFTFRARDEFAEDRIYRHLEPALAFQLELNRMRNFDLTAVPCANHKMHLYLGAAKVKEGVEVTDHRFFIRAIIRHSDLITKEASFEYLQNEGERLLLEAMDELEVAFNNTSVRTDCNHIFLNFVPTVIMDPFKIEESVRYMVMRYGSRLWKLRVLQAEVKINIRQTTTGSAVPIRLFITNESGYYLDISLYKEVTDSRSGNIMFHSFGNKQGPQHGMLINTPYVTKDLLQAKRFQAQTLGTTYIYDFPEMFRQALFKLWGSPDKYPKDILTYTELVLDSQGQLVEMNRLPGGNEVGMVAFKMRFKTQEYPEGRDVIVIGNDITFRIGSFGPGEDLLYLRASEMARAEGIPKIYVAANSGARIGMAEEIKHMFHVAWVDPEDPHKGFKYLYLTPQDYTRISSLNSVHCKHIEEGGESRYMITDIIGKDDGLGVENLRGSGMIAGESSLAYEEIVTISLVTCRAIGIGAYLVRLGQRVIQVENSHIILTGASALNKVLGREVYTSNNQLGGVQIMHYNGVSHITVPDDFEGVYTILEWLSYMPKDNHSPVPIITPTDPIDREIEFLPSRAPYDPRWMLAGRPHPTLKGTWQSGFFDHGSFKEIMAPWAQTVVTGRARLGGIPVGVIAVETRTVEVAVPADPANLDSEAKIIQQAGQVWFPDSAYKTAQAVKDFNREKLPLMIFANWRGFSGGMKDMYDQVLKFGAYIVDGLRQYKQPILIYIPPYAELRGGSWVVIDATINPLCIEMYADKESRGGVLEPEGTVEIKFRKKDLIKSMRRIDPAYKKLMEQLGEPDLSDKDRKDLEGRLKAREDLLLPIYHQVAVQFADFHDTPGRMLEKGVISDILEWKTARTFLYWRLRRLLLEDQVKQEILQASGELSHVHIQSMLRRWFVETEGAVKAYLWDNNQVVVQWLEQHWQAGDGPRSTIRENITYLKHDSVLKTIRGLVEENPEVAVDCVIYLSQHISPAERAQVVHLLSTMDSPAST
procedure text: ACC2 assay, spectrophotometric 384 well assay (NADH-linked, coupled lactate dehydrogenase/pyruvate kinase)
Type: biochemical
conditions used: ACC2 assay, hACC2 construct lacking 128 N-terminal amino acids, 25° C., 340 nm; read-out: IC50
property measured: IC50 (nM)

Some solved entries appear below for comparison.
molecule | readout unit | IC50
CCOc1ccc(N2CCC(c3ccc(CC(C)NC(C)=O)cc3)CC2)cc1 (centres unmarked) [Example 2.1] | nM | 2100
CC(=O)N[C@@H](C)c1ccc(C2CCN(c3ccc(OCC4CCC4)c(F)c3)CC2)cc1 [Example 9.42] | nM | 160
CC(=O)N[C@@H](C)c1ccc(C2CCN(c3ncc(-c4ccc5sccc5c4)cn3)CC2)cc1 [Example 10.75] | nM | 50
CC(=O)N[C@@H](C)c1ccc(C2CCN(c3ccnc(NCCC(C)C)n3)CC2)cc1 [Example 11.71] | nM | 2300
CC(C)Oc1ccc(N2CCC(c3ccc([C@H](C)NC(=O)N(C)C)cc3)CC2)cc1 [Example 1.127] | nM | 330
CCOc1cnc(N2CCC(c3ccc([C@H](C)NC(C)=O)cc3)CC2)c(F)c1 [Example 1.100] | nM | 520

[a] CC(=O)N[C@@H](C)c1ccc(C2CCN(c3nccc(-c4ccc(C#N)s4)n3)CC2)cc1 [Example 22.11]
[b] CC(=O)N[C@@H](C)c1ccc(C2CCN(c3ccnc(Oc4ccccc4)c3)CC2)cc1 [Example 3.12]
[c] CCOc1ccc(N2CCC(c3ccc([C@H](C)NC(=O)CC(N)=O)cc3)CC2)cc1 [Example 33.1]
[d] CCCOc1ccc(N2CCC(c3ccc([C@H](C)NC(=O)CC)cc3)CC2)cc1 [Example 1.145]
[e] CC(=O)N[C@@H](C)c1ccc(C2CCN(c3ccc(C4(C#N)CC4)cn3)CC2)cc1 [Example 5.35]
Hey, quick one: sort these by IC50, low to high? The labels, placed in the requested order, form the answer.
b, d, a, c, e

###

tested target: human ACC2 (Homo sapiens, UniProt O00763)
Construct: made in house; host or cells: insect cells (baculoviral expression system)
procedure text: ACC2 assay, spectrophotometric 384 well assay (NADH-linked, coupled lactate dehydrogenase/pyruvate kinase)
Assay type: biochemical
conditions used: ACC2 assay, hACC2 construct lacking 128 N-terminal amino acids, 25° C., 340 nm; read-out: IC50
property measured: IC50 (nM)

Some solved entries appear below for comparison.
molecule | property measured | measured number
CCCOc1ccc(N2CCC(c3ccc([C@H](C)NC(C)=O)cc3)CC2)c(F)c1 | IC50 | 70
CCOc1cccc(-c2ccnc(N3CCC(c4ccc([C@H](C)NC(C)=O)cc4)CC3)n2)c1 | IC50 | 240
CCOc1ccc(N2CCC(c3ccc([C@H](C)NC(=O)COC)cc3)CC2)cc1 | IC50 | 1000
COc1cc(N2CCC(c3ccc([C@H](C)NC(C)=O)cc3)CC2)ccc1OCC1CCO1 (stereo partly shown) | IC50 | 26600
CCCOc1ccc(N2CCC(c3ccc([C@H](C)NC(=O)N(C)C)cc3)CC2)c(F)c1 | IC50 | 210
CC(=O)N[C@@H](C)c1ccc(C2CCN(c3cc(OCCC(C)(C)C)ncn3)CC2)cc1 | IC50 | 300

[I] CC(=O)N[C@@H](C)c1ccc(C2CCN(c3ncc(-c4cccc(CC#N)c4)cn3)CC2)cc1
[II] CC(=O)N[C@@H](C)c1ccc(C2CCN(c3ccc(-c4ccc(Cl)cc4)cn3)CC2)cc1
Hey, which is lower on measured IC50, I or II ? State your choice using its label.
II

[a] C[C@H](NC(=O)C1CC1)c1ccc(C2CCN(c3ccnc(Oc4cncnc4)c3)CC2)cc1
[b] C[C@H](NC(=O)C1CC1)c1ccc(C2CCN(c3nc(N4CCCC4)ncc3F)CC2)cc1
Hey, which is lower on measured IC50, a or b ? State your choice using its label.
b

###

tested target: human ACC2 (Homo sapiens)
Construct: made in house; host or cells: insect cells (baculoviral expression system)
procedure text: ACC2 assay, spectrophotometric 384 well assay (NADH-linked, coupled lactate dehydrogenase/pyruvate kinase)
Format: biochemical
conditions used: ACC2 assay, hACC2 construct lacking 128 N-terminal amino acids, 25° C., 340 nm; read-out: IC50
property measured: IC50 (µM)

Some solved entries appear below for comparison.
query smiles | tested target | readout unit | measured number
COCCOc1ccc(N2CCC(c3ccc([C@H](C)NC(C)=O)cc3)CC2)cc1C#N | human ACC2 (Homo sapiens) | µM | 12
CCOc1ccc(N2CCC(c3ccc([C@H](C)NC(=O)Nc4ccon4)cc3)CC2)cc1 | human ACC2 (Homo sapiens) | µM | 0.79

[1] COc1cc(N2CCC(c3ccc([C@H](C)NC(C)=O)cc3)CC2)ccc1OCC(C)C
[2] CCOc1ccc(N2CCC(c3ccc([C@H](C)NC(=O)CC(=O)O)cc3)CC2)cc1
Hey, which is lower on measured IC50, 1 or 2 ? State your choice using its label.
1

###

tested target: human ACC2 (Homo sapiens, UniProt O00763)
Construct: made in house; host or cells: insect cells (baculoviral expression system)
procedure text: ACC2 assay, spectrophotometric 384 well assay (NADH-linked, coupled lactate dehydrogenase/pyruvate kinase)
Type: biochemical
conditions used: ACC2 assay, hACC2 construct lacking 128 N-terminal amino acids, 25° C., 340 nm; read-out: IC50
pIC50: −log10 of the molar value.
property measured: pIC50

molecule | pIC50
CCOCCOc1ccc(N2CCC(c3ccc([C@H](C)NC(C)=O)cc3)CC2)cc1 | 6.36
CC(=O)N[C@@H](C)c1ccc(C2CCN(c3ccc4c(Cl)cccc4n3)CC2)cc1 | 5.42
CCCC(C)Oc1ccc(N2CCC(c3ccc([C@H](C)NC(C)=O)cc3)CC2)cc1C#N (some centres unmarked) | 5.49

[a] CC(=O)N[C@@H](C)c1ccc(C2CCN(c3cccc(OC4CCCC4)c3)CC2)cc1
[b] COc1ccc(N2CCC(c3ccc([C@H](C)NC(C)=O)cc3)CC2)cc1F
[c] CC(=O)N[C@@H](C)c1ccc(C2CCN(c3cc(-c4ccc5c(c4)OCO5)ncn3)CC2)cc1
Hey, quick one: sort these by pIC50, low to high? The labels, placed in the requested order, form the answer.
c, b, a
(c: 5.60, b: 6.24, a: 6.66)

[1] CC(=O)N[C@@H](C)c1ccc(C2CCN(c3ncc(C(=O)NC4COC4)cn3)CC2)cc1
[2] CC(=O)N[C@@H](C)c1ccc(C2CCN(c3ncc(C(=O)NCc4cc[nH]n4)cn3)CC2)cc1
[3] CC(=O)N[C@@H](C)c1ccc(C2CCN(c3cc(NC(C)C)ncn3)CC2)cc1
Rank descending by pIC50. The labels, placed in the requested order, form the answer.
2, 3, 1
(2: 5.59, 3: 5.30, 1: 4.82)

[P] CC(=O)N[C@@H](C)c1ccc(C2CCN(c3ccc(OCc4ccoc4)cc3)CC2)cc1
[Q] CC(=O)N[C@@H](C)c1ccc(C2CCN(c3cc(C)c4ccccc4n3)CC2)cc1
Exercise: compare P and Q ; which one has the greater pIC50? State your choice using its label.
P
(P: 6.77, Q: 5.74)

[A] C[C@H](NC(=O)C1CC1)c1ccc(C2CCN(c3ccc(OCC4CC4(F)F)cc3)CC2)cc1 (some centres unmarked)
[B] CCOc1ccc(N2CCC(c3ccc([C@H](C)NC(=O)N4CCCC4)cc3)CC2)cc1
Hey, which is lower on measured pIC50, A or B ? State your choice using its label.
B

[1] CC(=O)N[C@@H](C)c1ccc(C2CCN(c3ccnc(N[C@H](C)C(C)C)n3)CC2)cc1
[2] CCOc1ccc(N2CCC(c3ccc([C@H](C)NC(=O)N4CCOCC4)cc3)CC2)cc1
Exercise: compare 1 and 2 ; which one has the greater pIC50? State your choice using its label.
2
(2: 5.80, 1: 5.42)

[P] COCC(C)Oc1cc(N2CCC(c3ccc([C@H](C)NC(C)=O)cc3)CC2)ccn1 (some centres unmarked)
[Q] CC(=O)N[C@@H](C)c1ccc(C2CCN(c3ncc(C(=O)N(C)C4CCN(C)C4)cn3)CC2)cc1 (some centres unmarked)
Exercise: compare P and Q ; which one has the greater pIC50? State your choice using its label.
P
